# method description: protease stability score; higher = more stable; yeast display proteolysis, trypsin and chymotrypsin;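 note: log10 excess protease needed over predicted unfolded state with 0 meaning unfolded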
Y means recorded protease stability score is 0.7 or above; N means it is below 0.7.

Before answering, review these 2 worked examples.
{"columns": ["primary sequence", "class assignment"],
 "data": [
  ["DEHNAHVLKQAMEAMATGDEKRFVELVDPNARMKVGDKEIKGREDFQEYLTDLHRHARVEVHHIHVNDNGDRFEIDVTQVIEINGRPDTKRMTLEAVAHNGQVKEINLRVPEEEWRRLER", "N"],
  ["DEHARRLVKKFIEAMKHGDPDKLMKLADPNVKFDIGDHQFKGSHEANKWLERMVRHMRFSLKVDSVKAHNGRVEVDAVFTFEVNGKPDQQRFTLDFHFNNGRVQNLTWDVDPRDWRKQLK", "Y"]
]}

### Prompt Can DDTARQVYEDAADALRTGDEDEFRKQVDKDVRLTYGDKFIHGREEAARQLRDRQSTMRDEWDINEVQVRNGTINVDANKRNHENGQPQDVNLRVEVHAHNGKLTELRYTVQQ be said to have protease stability score at or above 0.7?
### Response N

### Prompt Can DEKENKKLATELNQNLQTGDPDKLARLADPNARAQYGETTYHGRSQIKTMWETLSRQVDNVELKHMHVQGNEVEVVLTFNVNGKEYELRITASFKNGRLKDLQIDPDEIQRAEK be said to have protease stability score at or above 0.7?
### Response N

### Prompt Can DEEIEDMIRKLIHAIRSGDEKKIKDNFDKDVDVDVGDKTLHGREHLTKRIAETRRQLKVRITSLHVHVRGEQVRVQVTMERTVNGRPQRHHNVFELQVHNGRVKRVSVKSDG be said to have protease stability score at or above 0.7?
### Response Y

### Prompt Can DEQVLRVLNEYLEDLKRNNEERLRKLADPNVKFQVGDKTLHGMEDAVNHWRHLLDHMELRIDITEVNVSNGRAVVNARASQNVNGRPNDNEVQIVAEAHNGTLKFVEWRFDPDRQRKIDS be said to have protease stability score at or above 0.7?
### Response N

### Prompt Can DEEQNEHFSKVLQHGDFDRLAELMDPNAKAEVGDKTVHGREEFQRWIEHFKRQVDHIQYDRIDYHGNEIHASVRVHVNGNTIEFNVSLEFKNGRVTSFMMKARTKDDEDELRRLQS be said to have protease stability score at or above 0.7?
### Response Y
